# credit: patent US20190153108A1

# Assayed System: human Epidermal Growth Factor Receptor (huEGFR) over-expressed in mcl-1-/- mouse embryonic fibroblasts (human, UniProt P00533 25-1210)
# Protocol Summary: cell-based or functional assay
The entries below are paired with their reported huEGFR^+ mcl-1^-/- MEF EC50.
API: value field is a number in nM; no unit string.

binder="AbB-TV (antibody, V domains shown, synthon TV on reduced interchain Cys) VH: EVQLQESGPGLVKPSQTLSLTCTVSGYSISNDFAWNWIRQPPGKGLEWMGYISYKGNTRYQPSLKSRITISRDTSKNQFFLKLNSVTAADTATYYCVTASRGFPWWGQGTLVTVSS VL: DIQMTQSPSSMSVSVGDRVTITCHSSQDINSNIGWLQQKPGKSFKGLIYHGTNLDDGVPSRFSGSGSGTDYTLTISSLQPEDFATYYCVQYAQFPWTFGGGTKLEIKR" unit_annotation=nM reported_value=2.4

Look up huEGFR^+ mcl-1^-/- MEF EC50 for this binder: AbB-CZ (antibody, V domains shown, synthon CZ on reduced interchain Cys) VH: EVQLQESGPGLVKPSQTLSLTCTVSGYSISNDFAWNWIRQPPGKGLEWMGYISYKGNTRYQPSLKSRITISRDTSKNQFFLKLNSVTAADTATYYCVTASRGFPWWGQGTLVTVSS VL: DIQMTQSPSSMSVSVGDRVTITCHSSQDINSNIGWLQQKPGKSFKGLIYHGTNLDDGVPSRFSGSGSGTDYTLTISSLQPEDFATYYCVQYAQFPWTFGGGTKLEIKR
5.9

Request: AbA-TX (antibody, V domains shown, synthon TX on reduced interchain Cys) VH: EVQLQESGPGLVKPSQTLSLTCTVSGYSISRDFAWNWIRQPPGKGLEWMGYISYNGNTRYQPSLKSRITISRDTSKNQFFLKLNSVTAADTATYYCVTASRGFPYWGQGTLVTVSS VL: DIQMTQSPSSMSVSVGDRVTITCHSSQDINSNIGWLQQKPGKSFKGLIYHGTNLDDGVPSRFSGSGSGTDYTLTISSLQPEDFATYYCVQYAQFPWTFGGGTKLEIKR
16
